Data credit: paper PMC10103746

target.system: Yeast Sir2 (Saccharomyces cerevisiae, UniProt P06700)
Sequence (P06700 whole entry): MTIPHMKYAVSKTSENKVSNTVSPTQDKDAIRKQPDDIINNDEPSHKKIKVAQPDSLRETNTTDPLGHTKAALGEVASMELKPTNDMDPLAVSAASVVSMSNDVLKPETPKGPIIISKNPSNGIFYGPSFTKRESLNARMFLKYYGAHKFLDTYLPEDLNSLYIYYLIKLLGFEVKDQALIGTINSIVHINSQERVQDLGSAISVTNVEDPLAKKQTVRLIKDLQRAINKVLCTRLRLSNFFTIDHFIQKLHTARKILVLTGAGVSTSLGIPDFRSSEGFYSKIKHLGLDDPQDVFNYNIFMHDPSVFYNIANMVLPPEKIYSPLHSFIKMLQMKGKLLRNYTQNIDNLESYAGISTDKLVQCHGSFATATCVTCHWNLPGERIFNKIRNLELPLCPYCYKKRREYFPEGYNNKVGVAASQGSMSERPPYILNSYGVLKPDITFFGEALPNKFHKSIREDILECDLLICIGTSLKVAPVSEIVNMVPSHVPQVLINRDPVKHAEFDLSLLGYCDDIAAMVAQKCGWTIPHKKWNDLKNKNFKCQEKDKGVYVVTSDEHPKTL
quantity.measured: IC50

What reported IC50 corresponds to CC(/C=C/C(=O)NO)=C\[C@@H](C)C(=O)c1ccc(N(C)C)cc1 on Yeast Sir2 (Saccharomyces cerevisiae, UniProt P06700)?
> 50 µM

====

target.system: SIRT5 (Homo sapiens, UniProt Q9NXA8)
Sequence (Q9NXA8 34-302): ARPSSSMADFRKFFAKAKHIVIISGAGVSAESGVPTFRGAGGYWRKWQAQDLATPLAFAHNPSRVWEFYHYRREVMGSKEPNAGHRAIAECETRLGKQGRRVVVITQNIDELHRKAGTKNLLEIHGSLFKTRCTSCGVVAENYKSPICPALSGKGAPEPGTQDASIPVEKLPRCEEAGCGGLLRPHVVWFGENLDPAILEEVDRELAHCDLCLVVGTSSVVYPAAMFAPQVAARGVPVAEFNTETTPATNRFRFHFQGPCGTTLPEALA
quantity.measured: IC50

What reported IC50 corresponds to CC(/C=C/C(=O)NO)=C\[C@@H](C)C(=O)c1ccc(N(C)C)cc1 on SIRT5 (Homo sapiens, UniProt Q9NXA8)?
> 50 µM
